Data origin, for the record: patent US20100204445A1

assayed.target: recombinant cohesin (CipA of Clostridium josui, BAA32429) (Clostridium josui)
experimental.protocol: SPR (Biacore T-100), same format, 5 mM EGTA in running buffer
Ends that are not written are not given here.
Tag: fulfilled if measured koff is not below 0.05 s⁻¹, not fulfilled if it is.

Some solved entries appear below for comparison.
{"binder": "recombinant JNK3 of which an I49V-substituted dockerin polypeptide is fused at the N-terminal (protein, not shown: large carriers; small tags and cut ends) MGLKGDVNNDGAIDALDIAALKKAILTQSTSNINLTNADMNNDGNIDAVDFAQLKVKLLN", "classification": "not fulfilled"}
{"binder": "recombinant JNK3 of which an I49S-substituted dockerin polypeptide is fused at the N-terminal (protein, not shown: large carriers; small tags and cut ends) MGLKGDVNNDGAIDALDIAALKKAILTQSTSNINLTNADMNNDGNIDASDFAQLKVKLLN", "classification": "not fulfilled"}
{"binder": "recombinant JNK3 of which an L16T/I49T-substituted dockerin polypeptide is fused at the N-terminal (protein, not shown: large carriers; small tags and cut ends) MGLKGDVNNDGAIDATDIAALKKAILTQSTSNINLTNADMNNDGNIDATDFAQLKVKLLN", "classification": "not fulfilled"}
{"binder": "recombinant JNK3 of which a wild-type dockerin was fused at the N-terminal (protein, not shown: large carriers; small tags and cut ends, not fully specified (C-terminus)) MGLKGDVNNDGAIDALDIAALKKAILTQSTSNINLTNADMNNDGNIDAIDFAQLKVKLLN", "classification": "not fulfilled"}
{"binder": "recombinant JNK3 of which an I49T-substituted dockerin polypeptide is fused at the N-terminal (protein, not shown: large carriers; small tags and cut ends) MGLKGDVNNDGAIDALDIAALKKAILTQSTSNINLTNADMNNDGNIDATDFAQLKVKLLN", "classification": "not fulfilled"}

Then there is this binder:
Inquiry: Entry recombinant JNK3 of which an I49N-substituted dockerin polypeptide was fused at the N-terminal (protein, not shown: large carriers; small tags and cut ends) MGLKGDVNNDGAIDALDIAALKKAILTQSTSNINLTNADMNNDGNIDANDFAQLKVKLLN : is its koff no less than 0.05 s⁻¹?
Reply text: fulfilled
